Give measured clearance for each item. Keep answers brief.
Assay: Clearance in Sprague-Dawley rat at 1 mg/kg, iv and 5 mg/kg, po
Type: ADME, organism-based
Conditions: in vivo

Answer with the recorded clearance of CNC(=O)c1c(-c2ccc(F)cc2)oc2cc(N(C[C@H]3COB(O)C3)S(C)(=O)=O)c(C3CC3)cc12 only.
32 mL/min/kg

Hello, please tell me recorded clearance for this one: CNC(=O)c1c(-c2ccc(F)cc2)oc2cc(N(C[C@@H]3COB(O)C3)S(C)(=O)=O)c(C3CC3)cc12
6.6 mL/min/kg

Report clearance, nothing else, for this molecule: CNC(=O)c1c(-c2ccc(F)cc2)oc2cc(N(Cc3ccc(B(O)O)cc3)S(C)(=O)=O)c(C3CC3)cc12
36 mL/min/kg

Dear colleague, please send me the reported clearance for CNC(=O)c1c(-c2ccc(F)cc2)oc2cc(N(CCOCB(O)O)S(C)(=O)=O)c(C3CC3)cc12 when you can.
25 mL/min/kg
